Kindly supply the reported pEC50 values for the records listed here.
- targetOfAssay: RORγt-LBD (Homo sapiens, UniProt P51449)
- Sequence (P51449 269-508 limits assumed): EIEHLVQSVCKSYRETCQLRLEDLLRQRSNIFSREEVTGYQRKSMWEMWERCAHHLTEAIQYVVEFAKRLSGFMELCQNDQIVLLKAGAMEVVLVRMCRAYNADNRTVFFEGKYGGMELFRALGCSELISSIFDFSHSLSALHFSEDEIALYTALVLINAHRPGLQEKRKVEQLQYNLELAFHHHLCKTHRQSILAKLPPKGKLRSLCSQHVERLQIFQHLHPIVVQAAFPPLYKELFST
- testDescription: Gal4-RORγtLBD luciferase reporter assay in RORγt+-Jurkat stable cells (HTS / EC50 assay)
- testContext: RORγt+-Jurkat cells, 5 μM to 8 nM 5-fold gradient, 6 hr; read-out: EC50 (anti-RORγt activity, relative luciferase activity)
The quantity pEC50 is defined as the negative base-10 logarithm of the molar concentration.

Requested read-out: pEC50. Entry: CCN(CC)Cc1nc(Sc2nnnn2-c2ccccc2)c2c(C)c(C)sc2n1 [compound 7]
5.59

Which measured pEC50 value corresponds to Cc1ccccc1-n1nnnc1Sc1ccnc2cc(Cl)ccc12 [compound 11] ?
6.60

Requested field: pEC50. Item: Cc1cccc(C)c1-n1nnnc1Sc1ncnc2ccsc12 [compound 14]
6.17
